Tested on: S. aureus strain KCTC1621
Type: cell-based
Applied conditions: KCTC1621, 18 h
Non-standard residues stand in square brackets, D forms with d. Residues, ends and D or L forms follow the SMILES beside them. Nspe = C[C@H](NCC(=O)O)c1ccccc1; Nphe = O=C(O)CNCc1ccccc1; Nlys = NCCCCNCC(=O)O
Readout kind: MIC S. aureus (µM)
Expressed in µM, but write only the number.

Below: 3 compounds and their reported MIC S. aureus.
{"Compound": "C[C@@H](c1ccccc1)N(CC(=O)N(CC(=O)N(CCCCN)CC(=O)N(CC(=O)N(CC(N)=O)Cc1ccccc1)Cc1ccccc1)Cc1ccccc1)C(=O)CN(CCCCN)C(=O)CN(Cc1ccccc1)C(=O)CN(Cc1ccccc1)C(=O)CN(CCCCN)C(=O)CN(Cc1ccccc1)C(=O)CN(Cc1ccccc1)C(=O)CNCCCCN [compound 7] (H-[Nlys][Nphe][Nphe][Nlys][Nphe][Nphe][Nlys][Nspe][Nphe][Nlys][Nphe][Nphe]-NH2)", "Target": "S. aureus strain KCTC1621", "Value reported": 3.1}
{"Compound": "C[C@@H](c1ccccc1)N(CC(N)=O)C(=O)CN(Cc1ccccc1)C(=O)CN(CCCCN)C(=O)CN(Cc1ccccc1)C(=O)CN(Cc1ccccc1)C(=O)CN(CCCCN)C(=O)CN(Cc1ccccc1)C(=O)CN(Cc1ccccc1)C(=O)CN(CCCCN)C(=O)CN(Cc1ccccc1)C(=O)CN(Cc1ccccc1)C(=O)CNCCCCN [compound 10]", "Target": "S. aureus strain KCTC1621", "Value reported": 3.1}
{"Compound": "C[C@@H](c1ccccc1)N(CC(N)=O)C(=O)CN(C(=O)CN(CCCCN)C(=O)CN(Cc1ccccc1)C(=O)CN(Cc1ccccc1)C(=O)CN(CCCCN)C(=O)CN(Cc1ccccc1)C(=O)CN(Cc1ccccc1)C(=O)CN(CCCCN)C(=O)CN(Cc1ccccc1)C(=O)CN(C(=O)CNCCCCN)[C@@H](C)c1ccccc1)[C@@H](C)c1ccccc1 [compound 14]", "Target": "S. aureus strain KCTC1621", "Value reported": 1.6}

Now look at this entry.
Entry C[C@@H](c1ccccc1)N(CC(=O)N(CCCCN)CC(=O)N(CC(=O)N(CC(=O)N(CCCCN)CC(=O)N(CC(=O)N(CC(=O)N(CCCCN)CC(=O)N(CC(=O)N(CC(N)=O)Cc1ccccc1)Cc1ccccc1)Cc1ccccc1)Cc1ccccc1)Cc1ccccc1)Cc1ccccc1)C(=O)CN(C(=O)CNCCCCN)[C@@H](C)c1ccccc1 [compound 17] (H-[Nlys][Nspe][Nspe][Nlys][Nphe][Nphe][Nlys][Nphe][Nphe][Nlys][Nphe][Nphe]-NH2) , tested on S. aureus strain KCTC1621, has a reported MIC S. aureus of 3.1
